Tested on: HIV-1 Env-pseudoviruses (208-strain panel)
Experiment: microbe, parasite or virus in culture
Type: cell-based
Settings: Human immunodeficiency virus 1, TZM-bl, BX08.16, clade B; read-out: IC50
property: IC50
Number first, unit second.

Memo: COc1cnc(-c2csc(C(=O)NCCO)n2)c2[nH]cc(C(=O)C(=O)N3CCC(=C(C#N)c4ccccc4)CC3)c12 , reported IC50: 0.1 nM

---

Test system: HIV-1 Env-pseudoviruses (208-strain panel)
Experiment: microbe, parasite or virus in culture
Format: cell-based
Conditions: Human immunodeficiency virus 1, TZM-bl, X2131.C1.B5, clade G; read-out: IC50
property: IC50 (nM)
Give bare numbers, in nM.

Memo: COc1cnc(-c2csc(C(=O)NCCO)n2)c2[nH]cc(C(=O)C(=O)N3CCC(=C(C#N)c4ccccc4)CC3)c12 [BMS-818251] , reported IC50: 1
